target: ITK (Homo sapiens, UniProt Q08881); construct: purchased Promega Corporation; assay: Inhibitory activity against ITK (ADP-Glo + ITK Kinase enzyme system kit); selectivity BTK vs. ITK; assay type: biochemical; conditions: selectivity for the inhibitory activity of BTK vs. ITK, Equation 1
Sequence (Q08881 whole entry): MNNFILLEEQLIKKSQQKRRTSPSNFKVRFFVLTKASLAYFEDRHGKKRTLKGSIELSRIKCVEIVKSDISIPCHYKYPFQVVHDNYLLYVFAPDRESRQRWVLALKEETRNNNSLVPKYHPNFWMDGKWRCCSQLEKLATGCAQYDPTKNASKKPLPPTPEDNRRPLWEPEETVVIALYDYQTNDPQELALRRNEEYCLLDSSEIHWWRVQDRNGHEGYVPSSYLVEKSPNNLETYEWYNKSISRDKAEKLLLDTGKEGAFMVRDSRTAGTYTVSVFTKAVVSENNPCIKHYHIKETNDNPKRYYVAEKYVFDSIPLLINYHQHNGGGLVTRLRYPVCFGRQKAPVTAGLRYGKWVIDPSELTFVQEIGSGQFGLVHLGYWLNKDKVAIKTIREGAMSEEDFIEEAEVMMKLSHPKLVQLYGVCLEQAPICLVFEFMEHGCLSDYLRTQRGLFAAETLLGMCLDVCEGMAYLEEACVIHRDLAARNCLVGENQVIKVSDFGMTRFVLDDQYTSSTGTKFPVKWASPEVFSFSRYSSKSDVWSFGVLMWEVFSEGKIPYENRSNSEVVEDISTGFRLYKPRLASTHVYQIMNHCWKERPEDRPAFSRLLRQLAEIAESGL
Property name: Selectivity (based on IC50)

{"columns": ["Molecule", "Result"],
 "data": [
  ["C#CC(=O)N1CC2CC1C(n1nc(-c3ccc(C(=O)Nc4ccccc4)cc3)c3c(N)ncnc31)C2 (stereo not drawn)", ">212.8"],
  ["C=CC(=O)N1C[C@@H]2C[C@H]1[C@@H](n1nc(-c3ccc(C(=O)Nc4ccccn4)cc3OC)c3c(N)ncnc31)C2", ">200"]
]}

Short answer please: Selectivity (based on IC50), ITK (Homo sapiens, UniProt Q08881), entry C=CC(=O)N1CC2CC1C(n1nc(-c3ccc(C(=O)Nc4ccccn4)cc3)c3c(N)ncnc31)C2 (stereo not drawn)
>142.9
